These measurements were taken from patent US20230151091A1.

tested.system: T1, human MuSK (human, UniProt O15146 24-495)
T1 construct: Recombinant protein coated on ELISA plates (R&D Systems cat. 10189-MK) or on the Biacore chip; also called human muscle-specific tyrosine protein kinase; full length human MuSK
T1 sequence: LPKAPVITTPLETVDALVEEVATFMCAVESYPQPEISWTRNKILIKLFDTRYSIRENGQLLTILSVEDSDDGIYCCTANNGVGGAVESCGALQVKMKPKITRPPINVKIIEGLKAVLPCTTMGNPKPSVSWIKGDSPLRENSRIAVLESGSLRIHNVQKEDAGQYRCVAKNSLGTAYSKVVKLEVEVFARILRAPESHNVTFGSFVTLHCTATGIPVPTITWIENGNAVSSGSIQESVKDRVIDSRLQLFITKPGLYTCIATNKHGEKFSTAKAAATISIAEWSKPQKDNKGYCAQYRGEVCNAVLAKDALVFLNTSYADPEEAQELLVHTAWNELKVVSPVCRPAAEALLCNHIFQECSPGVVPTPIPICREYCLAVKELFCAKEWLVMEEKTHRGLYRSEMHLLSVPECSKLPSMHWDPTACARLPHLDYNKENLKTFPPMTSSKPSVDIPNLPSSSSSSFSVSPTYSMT
assay.remarks: Biacore T200, off rate at pH 5.5 against pH 7.4
measured.metric: Ratio pH 5.5/7.4 of off rate
Field format: numeric only.

Recorded Ratio pH 5.5/7.4 of off rate (binder X2 Fab (Fab, V domains shown, Fab format) VH: EVQLVESGGGLVQPGGSLRLSCAASGFTVSSSSIHWVRQAPGKGLEWVASISSSYGSTSYADSVKGRFTISADTSKNTAYLQMNSLRAEDTAVYYCARSEGDRYVSGYMGMDYWGQGTLVTVSS VL: DIQMTQSPSSLSASVGDRVTITCRASQSVSSAVAWYQQKPGKAPKLLIYSASSLYSGVPSRFSGSRSGTDFTLTISSLQPEDFATYYCQQSGVWLITFGQGTKVEIK ): 0.6
